All figures here come from patent US10544140B2.

measurement notes: Cytotoxicity test by MTT assay, CHO-K1 normal cell line
Format: cell-based
measurement setup: Chinese hamster, CHO-K1 cells (normal cell line)
Experimental: A cytotoxicity test was measured by MTT assay. Each cell line was cultured in a 96-well plate at a density of 1×10^4 cells/well. After 24 hours, the culture medium containing 1% FBS (fetal bovine serum) was treated and reacted with compounds or solutions of compounds for 48 hours. […] After reacting in an incubator for 30 minutes, the formation of formazan was quantified using a microplate reader at an absorbance of 540 nm.
One threshold, 50 µM, splits the recorded IC50 at 48 h values: lower ones are Met, equal or higher ones are Not met.

Example entries and their recorded answers appear below.
Query: Say whether its IC50 at 48 h is strictly beneath 50 µM. Entry: Cc1nc2c(c(C)c1O)/C(=C/c1ccncc1)C(=O)N2 [Compound I-23]
Result: Not met

Query: Quick check: does COc1ccc(OC)c(/C=C2\C(=O)Nc3nc(C)c(O)c(C)c32)c1 [Compound I-15] have IC50 at 48 h under 50 µM?
Result: Met

Query: Is 50 µM strictly greater than the compound's reported IC50 at 48 h? compound: Cc1nc2c(c(C)c1O)/C(=C/c1[nH]c(C)c(C(=O)O)c1C)C(=O)N2 [Compound I-37]
Result: Met

Query: Please let me know if COc1cccc2c1C(=O)c1c(O)c3c(c(O)c1C2=O)C[C@@](O)(C(=O)CO)C[C@@H]3O[C@H]1C[C@H](N)[C@H](O)[C@H](C)O1 [Doxorubicin, reference compound] shows IC50 at 48 h below 50 µM.
Result: Met

Further cases:
Query: Bench note: check whether Cc1nc2c(c(C)c1O)/C(=C/C(c1ccccc1)c1ccccc1)C(=O)N2 [Compound I-19] shows IC50 at 48 h below 50 µM
Result: Met

Query: Item CCNCCNC(=O)c1c(C)[nH]c(/C=C2\C(=O)Nc3nc(C)c(O)c(C)c32)c1C [Compound I-40] : IC50 at 48 h beneath 50 µM, strictly?
Result: Met

Query: API: query returns whether the compound falls strictly under 50 µM in IC50 at 48 h. Query: Cc1nc2c(c(C)c1O)/C(=C/c1[nH]c(C)c(C(=O)NC3CCCCC3)c1C)C(=O)N2 [Compound I-41]
Result: Met

Query: Is IC50 at 48 h of CCOC(=O)c1c(C)[nH]c(/C=C2\C(=O)Nc3nc(C)c(O)c(C)c32)c1C [Compound I-38] strictly below 50 µM?
Result: Met

Query: State whether 50 µM exceeds IC50 at 48 h recorded for Cc1nc2c(c(C)c1O)/C(=C/c1ccoc1)C(=O)N2 [Compound I-28] .
Result: Not met

Query: Please indicate whether the reported IC50 at 48 h of Cc1nc2c(c(C)c1O)/C(=C/c1[nH]c(C)c(C(=O)N3CCOCC3)c1C)C(=O)N2 [Compound I-46] is strictly below 50 µM.
Result: Not met

Query: Does the reported IC50 at 48 h of the following compound sit strictly below 50 µM? Cc1nc2c(c(C)c1O)/C(=C/c1cccnc1)C(=O)N2 [Compound I-22]
Result: Not met

Query: Answer whether the compound CCN(CC)CCNC(=O)c1c(C)[nH]c(/C=C2\C(=O)Nc3nc(C)c(O)c(C)c32)c1C [Compound I-39] has IC50 at 48 h strictly less than 50 µM
Result: Not met

Query: API: query returns whether the compound falls strictly under 50 µM in IC50 at 48 h. Query: Cc1nc2c(c(C)c1O)/C(=C/c1[nH]c(C)c(C(=O)N3CCCCC3)c1C)C(=O)N2 [Compound I-43]
Result: Met

Query: Bench note: check whether CCCCC/C=C1\C(=O)Nc2nc(C)c(O)c(C)c21 [Compound I-01] shows IC50 at 48 h below 50 µM
Result: Met

Query: is_below(IC50 at 48 h, 50 µM) for Cc1nc2c(c(C)c1O)/C(=C/c1ccc(N(C)C)cc1)C(=O)N2 [Compound I-18] ?
Result: Not met

Query: Does COc1ccc(Br)cc1/C=C1\C(=O)Nc2nc(C)c(O)c(C)c21 [Compound I-17] have IC50 at 48 h strictly under 50 µM?
Result: Met

Query: Identify whether the compound Cc1nc2c(c(C)c1O)/C(=C/c1[nH]c(C)c(C(=O)N3CCN(C)CC3)c1C)C(=O)N2 [Compound I-45] records IC50 at 48 h below 50 µM.
Result: Met

Query: Could you please tell me whether IC50 at 48 h recorded for Cc1nc2c(c(C)c1O)/C(=C/c1[nH]c(C)c(C(=O)N3CCCC3)c1C)C(=O)N2 [Compound I-44] is less than 50 µM?
Result: Not met

====

Entries and their IC50 at 48 h
measurement notes: Cytotoxicity test by MTT assay, HEK293 normal cell line
Assay type: cell-based
measurement setup: human, HEK293 cells (normal cell line)
I only need the number, in µM, no unit after it.

// field: IC50 at 48 h; key: COc1cccc2c1C(=O)c1c(O)c3c(c(O)c1C2=O)C[C@@](O)(C(=O)CO)C[C@@H]3O[C@H]1C[C@H](N)[C@H](O)[C@H](C)O1 [Doxorubicin, reference compound] ; value = 0.32

What the record says about CCNCCNC(=O)c1c(C)[nH]c(/C=C2\C(=O)Nc3nc(C)c(O)c(C)c32)c1C [Compound I-40] : IC50 at 48 h is 19.1

In the following, a different molecule is considered.
IC50 at 48 h in this record for COc1ccc(OC)c(/C=C2\C(=O)Nc3nc(C)c(O)c(C)c32)c1 [Compound I-15] : 37.8
